Ref: patent US5032593A

pKi values recorded for A2 - Adenosine receptor (Rattus norvegicus)
Here pKi is given on a logarithmic scale as minus log10 of the concentration in mol/L.

Value wanted: pKi (A2 - Adenosine receptor (Rattus norvegicus)) of entry Cn1c(=O)c2[nH]c(-c3ccccc3)nc2n(C)c1=O 6.19

Now consider CCCn1c(=O)c2[nH]c(-c3ccccc3)nc2n(C)c1=O and answer again. 6.26

Next entry: CCCn1c(=O)c2[nH]c(-c3ccccc3)nc2n(CCC)c1=O 6.94

Thanks! And CCCn1c(=O)n(C)c(=O)c2[nH]c(-c3ccccc3)nc21 ? 7.03

====

Target: A1 - Adenosine receptor (Rattus norvegicus, UniProt P25099)
Sequence (P25099 1-326): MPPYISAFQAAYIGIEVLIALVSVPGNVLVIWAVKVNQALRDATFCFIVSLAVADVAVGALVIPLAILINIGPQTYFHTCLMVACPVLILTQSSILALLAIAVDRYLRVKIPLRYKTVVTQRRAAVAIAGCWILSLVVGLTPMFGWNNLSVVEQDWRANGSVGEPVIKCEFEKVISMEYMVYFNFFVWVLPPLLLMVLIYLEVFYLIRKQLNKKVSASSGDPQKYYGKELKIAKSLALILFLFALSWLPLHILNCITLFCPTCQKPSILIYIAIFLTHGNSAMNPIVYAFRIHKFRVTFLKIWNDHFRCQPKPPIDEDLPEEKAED
For each record, write down the corresponding pKi.
Remember the convention: pKi equals -log10 of concentration in molar.

Entry CCCn1c(=O)n(C)c(=O)c2[nH]c(-c3ccccc3)nc21 has what pKi? 8.20

Try CCCn1c(=O)c2[nH]c(-c3ccccc3)nc2n(CCC)c1=O next. 8.56

====

experiment: Acute toxicity in mice; assay type: in vivo, mouse; conditions: N 3, route head 'p.o., i.p.'
Would you kindly list Acute Toxicity, Approximate lethal dose for each of these compounds?

Tell me the measured Acute Toxicity, Approximate lethal dose of CCCn1c(=O)c2[nH]c(-c3ccccc3)nc2n(CCC)c1=O , please. > 250 mg/kg

Same question, Cn1c(=O)c2[nH]c(-c3ccccc3)nc2n(C)c1=O this time < 250 mg/kg

Query CCCn1c(=O)c2[nH]c(-c3ccccc3)nc2n(C)c1=O next > 500 mg/kg

Next compound: CCCn1c(=O)n(C)c(=O)c2[nH]c(-c3ccccc3)nc21 > 250 mg/kg
